- ASSAY_NOTES: Antiproliferative activity against human DU145 cells assessed as reduction in cell viability after 48 hrs by MTT assay
- Assay type: functional, cell-based
- STATED_CONDITIONS: DU-145, 48 h

>  <SMILES_CODE>
CC(=O)Oc1ccccc1C(=O)NCC[Se]C#N

>  <UNIT_OF_MEASURE>
µM

>  <IC50>
3.4

$$$$

====

- ASSAY_NOTES: Antiproliferative activity against human HCT116 cells assessed as reduction in cell viability after 72 hrs by MTT assay
- Type: functional, cell-based
- STATED_CONDITIONS: HCT-116, 72 h
pIC50: −log10 of the molar value.

>  <SMILES_CODE>
CC(=O)Oc1ccccc1C(=O)NCC[Se]C#N

>  <pIC50>
5.68

$$$$
